target: Epidermal growth factor receptor (Homo sapiens); assay: DRUGMATRIX: Protein Tyrosine Kinase, EGF Receptor enzyme inhibition (substrate: Poly(Glu:Tyr)); assay type: cell-based, Insect cells; settings: Not Active = under 50% inhibition at 10 µM; read-out: IC50
Sequence (P00533 whole entry): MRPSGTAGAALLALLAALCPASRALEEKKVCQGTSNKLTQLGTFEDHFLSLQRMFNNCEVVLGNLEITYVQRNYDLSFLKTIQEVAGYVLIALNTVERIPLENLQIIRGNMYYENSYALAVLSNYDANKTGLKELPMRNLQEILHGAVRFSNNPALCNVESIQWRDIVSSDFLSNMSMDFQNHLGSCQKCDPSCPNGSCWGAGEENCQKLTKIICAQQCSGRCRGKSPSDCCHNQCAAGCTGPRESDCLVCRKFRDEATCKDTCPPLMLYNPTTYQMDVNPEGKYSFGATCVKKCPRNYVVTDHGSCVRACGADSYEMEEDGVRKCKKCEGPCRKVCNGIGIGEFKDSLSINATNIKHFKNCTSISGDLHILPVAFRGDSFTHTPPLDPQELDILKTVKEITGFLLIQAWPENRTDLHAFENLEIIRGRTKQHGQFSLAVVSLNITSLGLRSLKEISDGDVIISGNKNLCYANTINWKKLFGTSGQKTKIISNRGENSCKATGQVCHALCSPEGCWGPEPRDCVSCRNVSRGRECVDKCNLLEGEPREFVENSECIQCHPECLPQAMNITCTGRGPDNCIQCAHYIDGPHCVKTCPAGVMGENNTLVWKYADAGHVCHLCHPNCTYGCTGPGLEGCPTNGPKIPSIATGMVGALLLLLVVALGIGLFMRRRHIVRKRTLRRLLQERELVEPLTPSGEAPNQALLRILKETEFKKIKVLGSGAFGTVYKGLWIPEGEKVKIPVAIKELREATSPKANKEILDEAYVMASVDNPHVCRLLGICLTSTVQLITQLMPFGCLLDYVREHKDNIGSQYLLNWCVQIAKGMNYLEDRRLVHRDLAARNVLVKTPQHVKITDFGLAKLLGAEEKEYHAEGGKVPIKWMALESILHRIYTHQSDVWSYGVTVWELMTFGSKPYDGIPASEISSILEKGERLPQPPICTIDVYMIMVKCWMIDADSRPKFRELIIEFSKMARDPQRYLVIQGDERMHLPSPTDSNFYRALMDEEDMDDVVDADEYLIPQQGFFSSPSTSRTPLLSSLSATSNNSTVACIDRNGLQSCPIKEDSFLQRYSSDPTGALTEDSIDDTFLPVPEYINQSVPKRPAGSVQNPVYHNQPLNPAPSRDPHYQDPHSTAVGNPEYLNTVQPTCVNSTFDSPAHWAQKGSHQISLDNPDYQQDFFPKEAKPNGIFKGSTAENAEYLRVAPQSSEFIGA
In plain terms, low IC50, meaning strictly below 3 µM, gives Condition met, and everything else gives Condition not met.

These recorded examples may help you get a feel for the data.
> print(dat)
                                test.smiles     classification
1  O=C1c2c(O)ccc(O)c2C(=O)c2c(NCCNCCO)ccc(NCCNCCO)c21  Condition not met
2  CC(C)(O)c1ccccc1CC[C@@H](SCC1(CC(=O)O)CC1)c1cccc(/C=C/c2ccc3ccc(Cl)cc3n2)c1  Condition not met
3  COc1ccc(CCN2CCC(Nc3nc4ccccc4n3Cc3ccc(F)cc3)CC2)cc1  Condition not met

Quick check: IC50 of Oc1c(Cl)cc(Cl)cc1Sc1cc(Cl)cc(Cl)c1O under 3 µM?
Condition met

Quick check: IC50 of Clc1ccccc1C(c1ccccc1)(c1ccccc1)n1ccnc1 under 3 µM?
Condition not met

Quick check: IC50 of Oc1c(I)cc(I)c2cccnc12 under 3 µM?
Condition met
